Assay: MITF-driven TRPM1 luciferase induction in melanoma cells – cell-based, SK-MEL-5, single point, primary screen (AID 588334);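 further: 0% = neutral control wells and 100% = parthenolide positive control wells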
Conditions: SK-MEL-5 TRPM1-promoter luciferase, 24 h; at 12.5 µM; % of positive control, neutral wells = 0
Out of some 300,000 compounds screened, about 2,300 (0.77%) were called active.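 How the source made its calls: active means mean activation of at least 80% with every replicate also reaching 80%; inconclusive means mean reaches 80% but some replicate falls short; inactive means the rest.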 Only a selection was taken, and actives are over-represented in it overall.
The reply should be one of these categories: t (active), f (inactive)

* Cc1c(NC(=O)c2cc(-c3ccc(Br)cc3)on2)c(=O)n(-c2ccccc2)n1C | f
* CC(C)CNC(=O)c1cc(-c2ccc(Br)cc2)on1 | t
* O=C(Nc1ccccc1)c1ccc2c(c1)OCCCO2 | f
* Cc1ccc(C(=O)NNC(=O)c2ccc3c(c2)OCCO3)cc1 | t
* COc1ccc(CNc2nc(NCc3ccc(OC)cc3)c3ncn(C4CCCC4)c3n2)cc1 | f
* CCN(CC(=O)Nc1c(F)cccc1F)C(=O)Cc1cccs1 | f
* O=C1C[C@@H]2c3c(cccc3CN1Cc1ccccc1)C[C@@H](O)[C@H]2O | f
* CC(C)Cc1cc(C(=O)Nc2cc(Br)ccc2O)no1 | f

Answer briefly: the call reported for `Cc1cccc(C)c1NC(=O)CNC(=O)c1ccc2c(c1)OCCO2` in this assay.
f

Just curious, what result did CCN(CC)CCCC(C)n1c2nc(=O)[nH]c(=O)c-2nc2cc(Cl)ccc21 (stereo unspecified) get here?
f

Could you check what this test reported for CSCCC(NC(=O)c1ccccc1)C(=O)N1CCN(Cc2ccc(Cl)cc2)CC1 (stereo unspecified) ?
f

###

Test: MITF-driven TRPM1 luciferase induction in melanoma cells – cell-based, SK-MEL-5, single point, primary screen (AID 588334);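 further: 0% = neutral control wells and 100% = parthenolide positive control wells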
Conditions: SK-MEL-5 TRPM1-promoter luciferase, 24 h; at 12.5 µM; % of positive control, neutral wells = 0
In all, about 300,000 compounds went through this assay and about 2,300 (0.77%) were called active.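 Rule for the calls: active = mean activation of at least 80% with every replicate also reaching 80%; inconclusive = mean reaches 80% but some replicate falls short; inactive = the rest.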 For the sample, actives were picked, then their nearest neighbours and some compounds at random.
Respond using exactly one of the listed classes: true (active), false (inactive)

What classification did `COC(=O)c1ccc(CNC(=O)Cn2cc(C)c(=O)[nH]c2=O)cc1` end up with in this test?
false

Called result for `Cc1ccc(C(=O)Nc2nnc(-c3cccs3)s2)cc1C`
true

Check the results log: what was the call for `CCC(=O)c1cc(F)ccc1OCC(=O)Nc1ccc2c(c1)OCCO2` ?
false

Could you kindly confirm the outcome this assay logged for `CS(=O)(=O)N1CCN(C(=O)Cc2ccccc2)CC1` ?
false

# outcome recorded in this test, key = `Nc1cc2c(cc1Br)-c1ccc(F)cc1C2=O`
false

How did this test come out for `CS(=O)(=O)N1CCN(c2cccc(Cl)n2)CC1` ?
false

###

Test: MITF-driven TRPM1 luciferase induction in melanoma cells – cell-based, SK-MEL-5, single point, primary screen (AID 588334);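 further: 0% = neutral control wells and 100% = parthenolide positive control wells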
Details: SK-MEL-5 TRPM1-promoter luciferase, 24 h; at 12.5 µM; % of positive control, neutral wells = 0
About 2,300 (0.77%) of roughly 300,000 compounds were called active.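 Rule for the calls: active = mean activation of at least 80% with every replicate also reaching 80%; inconclusive = mean reaches 80% but some replicate falls short; inactive = the rest.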 Only a selection was taken, and actives are over-represented in it overall.
Log the outcome using a class from 1.0 (active), 0.0 (inactive)

What is the recorded call for this molecule in the test? `Cc1ccc(Nc2c(O)nc[nH]c2=O)cc1C`
0.0

Lab log entry: COc1ccc(CN2C(CC(=O)Nc3cccnc3)c3ccc(C(F)(F)F)cc3S2(=O)=O)cc1 (stereo unspecified) — outcome as called in the assay?
0.0

Test call for this molecule, please: `Cc1c(NS(=O)(=O)c2cccc(C(=O)Nc3ccc(SC(F)F)cc3)c2)c(=O)n(-c2ccccc2)n1C`
0.0
